Please go through the items and note down their Liver Microsome Stability (Multiple Species): Rat - % Remaining after 30 min w/NADPH.
Assay: Liver Microsome Stability Assay (rat)
Conditions: rat liver microsomes, with NADPH, 1.0 uM compound
Numbers only, in %.

Use these answered entries as a reference point.
{"compound": "O=C(Nc1nc([C@H]2CCCN2c2ccccc2)cs1)c1cccn1CC1=CCOCC1 [Compound C57]", "recorded.measurement": 0.43}
{"compound": "CC(=O)Nc1c(F)cc(N2CCC[C@@H]2c2csc(NC(=O)c3cccn3Cc3ccnc(F)c3)n2)cc1F [Compound A99]", "recorded.measurement": 0.49}
{"compound": "O=C(Nc1nc(/C=C/c2cn(C3CCCCC3)cn2)cs1)c1cccn1CC1CCOCC1 [Compound D5]", "recorded.measurement": 0.16}

Proceeding to the next compound to report its Liver Microsome Stability (Multiple Species): Rat - % Remaining after 30 min w/NADPH.
// query Liver Microsome Stability (Multiple Species): Rat - % Remaining after 30 min w/NADPH value for entry N#CCCn1cnc(/C=C/c2csc(NC(=O)c3cccn3Cc3ccnc(F)c3)n2)c1 [Compound B108]
23.9

----------
Test: Liver Microsome Stability Assay (monkey)
Details: monkey liver microsomes, with NADPH, 1.0 uM compound
quantity.name: Liver Microsome Stability (Multiple Species): Monkey - % Remaining after 30 min w/NADPH (%)
Answers are plain numbers, in %.

{"compound": "O=C(Nc1nc(CCC2CCCCO2)cs1)c1cccn1Cc1ccncc1 (centres unmarked) [Compound E6]", "recorded.measurement": 0.57}
{"compound": "O=C(Nc1nc([C@H]2CCCN2c2ccccc2)cs1)c1cccn1CC1CCC(F)(F)CC1 [Compound C21]", "recorded.measurement": 49}
{"compound": "O=C(Nc1nc([C@H]2CCCN2c2ccncc2)cs1)c1cccn1Cc1ccncc1 [Compound E48]", "recorded.measurement": 0.12}
{"compound": "C/C(=C\\c1csc(NC(=O)c2cccn2Cc2ccncc2)n1)c1ccc(OC(F)(F)F)cn1 [Compound E5]", "recorded.measurement": 2.47}
{"compound": "CC(C)n1cnc(/C=C/Cc2csc(NC(=O)c3cccn3Cc3ccnc(F)c3)n2)c1 [Compound B106]", "recorded.measurement": 0.06}
{"compound": "O=C(Nc1nc([C@H]2CCCN2c2ccc(CO)cc2)cs1)c1cccn1Cc1ccncc1 [Compound A57]", "recorded.measurement": 49.5}
{"compound": "CC1CCc2c(/C=C/c3csc(NC(=O)c4cccn4Cc4ccnc(F)c4)n3)ncn2C1 (centres unmarked) [Compound B98]", "recorded.measurement": 0.72}

Proceeding to the next compound to report its Liver Microsome Stability (Multiple Species): Monkey - % Remaining after 30 min w/NADPH.
// query Liver Microsome Stability (Multiple Species): Monkey - % Remaining after 30 min w/NADPH value for entry CC(C)c1nc(/C=C/c2csc(NC(=O)c3cccn3Cc3ccncc3)n2)cn1C [Compound B72]
0.06

----------
Test: Liver Microsome Stability Assay (monkey)
Conditions: monkey liver microsomes, with NADPH, 1.0 uM compound
quantity.name: Liver Microsome Stability (Multiple Species): Monkey - % Remaining after 30 min w/NADPH

{"smiles.notation": "N#CCCn1cnc(/C=C/c2csc(NC(=O)c3cccn3Cc3ccnc(F)c3)n2)c1", "recorded.measurement": "0.69%"}
{"smiles.notation": "O=C(Nc1nc(/C=C/c2ccncn2)cs1)c1cccn1Cc1ccncc1", "recorded.measurement": "0.36%"}
{"smiles.notation": "NC(=O)N1CCC(Oc2ccc(N3CCC[C@@H]3c3csc(NC(=O)c4cccn4Cc4ccnc(F)c4)n3)cn2)CC1", "recorded.measurement": "3.91%"}

// query Liver Microsome Stability (Multiple Species): Monkey - % Remaining after 30 min w/NADPH value for entry Cc1ccc(S(=O)(=O)N2CCC[C@@H]2c2csc(NC(=O)c3cccn3Cc3ccncc3)n2)cc1
0.11%
